# System: maltase (carbohydrase derived from rabbit small intestine mucous membrane)
# assay-name: Action to inhibit the hydrolytic activity of homogenate prepared from rabbit small intestine mucous membrane: maltase inhibition
# Type: biochemical
# experimental-setup: 100 mg/dl; substrate maltose 20 mM; pH 6.8, 37° C., 15 minutes
quantity-name: Maltase inhibition rate

Examples with their reported Maltase inhibition rate follow.
O=C[C@H](O)[C@@H](O)[C@@H](O)CO	45.7%
O=CC[C@@H](O)[C@@H](O)[C@H](O)CO	19.3%
O=C[C@H](O)[C@H](O)[C@H](O)CO	33.3%
O=C[C@H](O)[C@@H](O)[C@H](O)CO	44.3%
O=C(CO)[C@@H](O)[C@@H](O)[C@H](O)CO	30.3%
O=C[C@@H](O)[C@@H](O)[C@H](O)[C@H](O)CO [D-Mannose, D-mannose, reference compound]	10.6%
C[C@H](O)[C@@H](O)[C@@H](O)[C@H](O)C=O	24.8%

With those in mind, consider the next compound.
stdin: Dear colleague, please send me the reported Maltase inhibition rate for O=C[C@H](O)[C@@H](O)[C@@H](O)[C@H](O)CO [D-Galactose, D-galactose, reference compound] when you can.
stdout: 13.9%

====

Listing of recorded inhibition at 500 µg/mL by entry.
# experimental-target: sucrase (carbohydrase derived from rabbit small intestine mucous membrane) (Oryctolagus cuniculus)
# Construct: suspended again in a 10 mM potassium phosphate buffer (pH: 7.0), thereby obtaining a crude enzyme suspension; from tissue; host or cells: rabbit small intestine (title: mucous membrane), homogenate, 60,000×g precipitate
# Sequence (P07768 1008-1827 limits assumed): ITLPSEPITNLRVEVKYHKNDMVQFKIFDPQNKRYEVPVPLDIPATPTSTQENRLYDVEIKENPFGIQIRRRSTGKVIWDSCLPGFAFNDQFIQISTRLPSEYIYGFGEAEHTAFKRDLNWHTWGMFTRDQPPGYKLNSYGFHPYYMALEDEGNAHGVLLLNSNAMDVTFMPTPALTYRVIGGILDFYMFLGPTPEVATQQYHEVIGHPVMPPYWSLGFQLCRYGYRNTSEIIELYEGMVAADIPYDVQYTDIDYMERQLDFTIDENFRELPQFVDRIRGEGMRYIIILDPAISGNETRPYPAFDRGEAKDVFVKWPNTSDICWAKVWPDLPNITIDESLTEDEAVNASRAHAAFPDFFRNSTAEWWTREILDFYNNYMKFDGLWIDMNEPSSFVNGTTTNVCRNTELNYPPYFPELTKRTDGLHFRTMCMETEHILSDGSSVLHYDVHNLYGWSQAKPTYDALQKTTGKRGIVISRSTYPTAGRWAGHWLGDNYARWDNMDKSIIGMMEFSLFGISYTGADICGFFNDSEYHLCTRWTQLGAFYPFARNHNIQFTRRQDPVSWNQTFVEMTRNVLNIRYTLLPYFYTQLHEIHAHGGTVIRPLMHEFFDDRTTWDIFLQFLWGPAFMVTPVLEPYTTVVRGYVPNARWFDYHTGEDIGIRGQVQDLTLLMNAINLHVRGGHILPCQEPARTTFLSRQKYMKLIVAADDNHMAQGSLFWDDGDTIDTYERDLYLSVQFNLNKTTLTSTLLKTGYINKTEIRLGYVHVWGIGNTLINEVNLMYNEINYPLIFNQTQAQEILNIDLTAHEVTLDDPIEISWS
# Sequence (P07768 2-1007 partner limits assumed): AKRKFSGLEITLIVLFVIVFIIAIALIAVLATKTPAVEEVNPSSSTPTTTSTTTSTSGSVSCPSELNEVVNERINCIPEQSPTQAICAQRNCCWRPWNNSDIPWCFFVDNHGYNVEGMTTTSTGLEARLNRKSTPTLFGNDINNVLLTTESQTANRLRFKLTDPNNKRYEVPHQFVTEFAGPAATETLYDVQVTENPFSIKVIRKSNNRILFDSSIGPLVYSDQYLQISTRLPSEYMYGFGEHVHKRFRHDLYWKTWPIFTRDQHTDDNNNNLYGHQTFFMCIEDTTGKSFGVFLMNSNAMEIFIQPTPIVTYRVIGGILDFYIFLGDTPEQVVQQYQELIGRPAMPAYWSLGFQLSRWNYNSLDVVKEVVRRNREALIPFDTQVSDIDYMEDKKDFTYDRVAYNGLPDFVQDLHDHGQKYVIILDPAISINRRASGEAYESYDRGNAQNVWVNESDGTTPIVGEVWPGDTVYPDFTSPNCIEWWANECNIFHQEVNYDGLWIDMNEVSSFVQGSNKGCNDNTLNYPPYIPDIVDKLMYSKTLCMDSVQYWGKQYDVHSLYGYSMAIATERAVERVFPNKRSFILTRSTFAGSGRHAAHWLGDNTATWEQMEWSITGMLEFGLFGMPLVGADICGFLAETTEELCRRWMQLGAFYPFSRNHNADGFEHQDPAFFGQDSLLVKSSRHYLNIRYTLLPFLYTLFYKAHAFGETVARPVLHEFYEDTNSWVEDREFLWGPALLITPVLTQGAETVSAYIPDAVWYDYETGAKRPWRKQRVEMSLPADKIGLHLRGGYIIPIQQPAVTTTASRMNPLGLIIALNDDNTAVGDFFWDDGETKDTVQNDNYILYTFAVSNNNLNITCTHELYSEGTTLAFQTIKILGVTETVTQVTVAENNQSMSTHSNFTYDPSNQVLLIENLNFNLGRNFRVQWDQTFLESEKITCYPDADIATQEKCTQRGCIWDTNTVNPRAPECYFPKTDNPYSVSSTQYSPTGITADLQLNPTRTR
# assay-name: Action to inhibit the hydrolytic activity of homogenate prepared from rabbit small intestine mucous membrane: sucrase inhibition
# Assay type: biochemical
# experimental-setup: 0.25 h; 50 mg/dl; substrate sucrose 20 mM; pH 6.8, 37° C., 15 minutes; read-out: Sucrase inhibition rate
# Procedure: (Action to inhibit the hydrolytic activity of homogenate prepared from rabbit small intestine mucous membrane to carbohydrate) A native kind of white rabbits (weight: 3.0-3.5 kg) were sacrificed by exsanguination to take out their small intestines. After freezing and thawing the small intestines thus taken out, they were homogenized in a 5 mM EDTA buffer (pH: 7.0) and subjected to centrifugation for 60 minutes at 60,000×g. […]
A number alone suffices; assume %.

Examples with their reported inhibition at 500 µg/mL follow.
O=CC[C@@H](O)[C@@H](O)[C@H](O)CO	15.5
O=C(CO)[C@@H](O)[C@@H](O)[C@H](O)CO	15.7
C[C@H](O)[C@@H](O)[C@@H](O)[C@H](O)C=O	16.2

stdin: Dear colleague, please send me the reported inhibition at 500 µg/mL for O=C[C@H](O)[C@H](O)[C@H](O)CO when you can.
stdout: 17.8

stdin: Dear colleague, please send me the reported inhibition at 500 µg/mL for O=C[C@H](O)[C@@H](O)[C@@H](O)CO when you can.
stdout: 37.8

====

# experimental-target: sucrase (carbohydrase derived from rabbit small intestine mucous membrane) (Oryctolagus cuniculus)
# Construct: suspended again in a 10 mM potassium phosphate buffer (pH: 7.0), thereby obtaining a crude enzyme suspension; from tissue; host or cells: rabbit small intestine (title: mucous membrane), homogenate, 60,000×g precipitate
# assay-name: Action to inhibit the hydrolytic activity of homogenate prepared from rabbit small intestine mucous membrane: sucrase inhibition
# Assay type: biochemical
# experimental-setup: 0.25 h; 200 mg/dl; substrate sucrose 20 mM; pH 6.8, 37° C., 15 minutes; read-out: Sucrase inhibition rate
quantity-name: inhibition at 2000 µg/mL

Examples with their reported inhibition at 2000 µg/mL follow.
O=C[C@@H](O)[C@H](O)[C@@H](O)CO	24.5%
O=C[C@@H](O)[C@@H](O)[C@H](O)CO	23.4%
OC1OC[C@@H](O[C@@H]2OC[C@@H](O[C@@H]3OC[C@@H](O[C@@H]4OC[C@@H](O)[C@H](O)[C@H]4O)[C@H](O)[C@H]3O)[C@H](O)[C@H]2O)[C@H](O)[C@H]1O (some centres unmarked) [reference compound]	3.5%
O=CC[C@@H](O)[C@@H](O)[C@H](O)CO	34.8%
OC[C@H]1O[C@@H](OC[C@H]2OC(O)[C@H](O)[C@@H](O)[C@@H]2O)[C@H](O)[C@@H](O)[C@@H]1O (some centres unmarked) [Gentiobiose, reference compound]	-2.4%

stdin: Dear colleague, please send me the reported inhibition at 2000 µg/mL for O=C(CO)[C@@H](O)[C@@H](O)[C@H](O)CO when you can.
stdout: 36.6%

stdin: Dear colleague, please send me the reported inhibition at 2000 µg/mL for OC[C@H]1O[C@@H](O[C@H]2[C@H](O)[C@H](O)[C@H](O[C@H]3[C@H](O)[C@H](O)[C@H](O[C@H]4[C@H](O)[C@H](O)[C@H](O[C@H]5[C@H](O)[C@H](O)C(O)O[C@@H]5CO)O[C@@H]4CO)O[C@@H]3CO)O[C@@H]2CO)[C@@H](O)[C@@H](O)[C@@H]1O (some centres unmarked) [reference compound] when you can.
stdout: 4%

stdin: Dear colleague, please send me the reported inhibition at 2000 µg/mL for OC[C@H]1O[C@@H](O[C@H]2[C@H](O)[C@H](O)[C@H](O[C@H]3[C@H](O)[C@H](O)[C@H](O[C@H]4[C@H](O)[C@H](O)C(O)O[C@@H]4CO)O[C@@H]3CO)O[C@@H]2CO)[C@@H](O)[C@@H](O)[C@@H]1O (some centres unmarked) [reference compound] when you can.
stdout: -0.3%

stdin: Dear colleague, please send me the reported inhibition at 2000 µg/mL for O=C[C@H](O)[C@@H](O)[C@H](O)CO when you can.
stdout: 59.8%

stdin: Dear colleague, please send me the reported inhibition at 2000 µg/mL for C[C@H](O)[C@@H](O)[C@@H](O)[C@H](O)C=O when you can.
stdout: 30.7%

stdin: Dear colleague, please send me the reported inhibition at 2000 µg/mL for N[C@H]1C(O)O[C@H](CO)[C@H](O)[C@@H]1O (stereo partly drawn) [D-Galactosamine, D-galactosamine, reference compound] when you can.
stdout: -6.5%

stdin: Dear colleague, please send me the reported inhibition at 2000 µg/mL for OC[C@H]1O[C@@H](O[C@H]2[C@H](O)[C@@H](O)C(O)O[C@@H]2CO)[C@H](O)[C@@H](O)[C@@H]1O (some centres unmarked) [Cellobiose, reference compound] when you can.
stdout: -0.4%

stdin: Dear colleague, please send me the reported inhibition at 2000 µg/mL for O=C(CO)[C@@H](O)[C@H](O)CO when you can.
stdout: 19.9%

stdin: Dear colleague, please send me the reported inhibition at 2000 µg/mL for O=C[C@@H](O)[C@H](O)[C@H](O)CO [D-Arabinose, D-arabinose, reference compound] when you can.
stdout: 11.7%

====

# experimental-target: sucrase (carbohydrase derived from rabbit small intestine mucous membrane) (Oryctolagus cuniculus)
# Construct: suspended again in a 10 mM potassium phosphate buffer (pH: 7.0), thereby obtaining a crude enzyme suspension; from tissue; host or cells: rabbit small intestine (title: mucous membrane), homogenate, 60,000×g precipitate
# assay-name: Action to inhibit the hydrolytic activity of homogenate prepared from rabbit small intestine mucous membrane: sucrase inhibition
# Assay type: biochemical
# experimental-setup: 0.25 h; 200 mg/dl; substrate sucrose 20 mM; pH 6.8, 37° C., 15 minutes; read-out: Sucrase inhibition rate
The threshold is inclusive: inhibition at 2000 µg/mL of exactly 10% counts as Criterion met; values below receive Criterion not met.

O=C(CO)[C@H](O)[C@@H](O)CO [L-Xylulose, L-xylulose, reference compound]	Criterion met
OC1OC[C@@H](O[C@@H]2OC[C@@H](O[C@@H]3OC[C@@H](O)[C@H](O)[C@H]3O)[C@H](O)[C@H]2O)[C@H](O)[C@H]1O (stereo partly drawn) [reference compound]	Criterion not met
OC1OC[C@@H](O[C@@H]2OC[C@@H](O[C@@H]3OC[C@@H](O[C@@H]4OC[C@@H](O[C@@H]5OC[C@@H](O)[C@H](O)[C@H]5O)[C@H](O)[C@H]4O)[C@H](O)[C@H]3O)[C@H](O)[C@H]2O)[C@H](O)[C@H]1O (stereo partly drawn) [reference compound]	Criterion not met
O=C[C@H](O)[C@@H](O)[C@@H](O)CO	Criterion met
OC1OC[C@@H](O[C@@H]2OC[C@@H](O)[C@H](O)[C@H]2O)[C@H](O)[C@H]1O (stereo partly drawn) [reference compound]	Criterion met

Next, consider the following compound.
stdin: Decide: is the reported value of inhibition at 2000 µg/mL for C[C@@H](O)[C@H](O)[C@H](O)[C@@H](O)C=O [D-Fucose, D-fucose, reference compound] equal to or greater than 10%?
stdout: Criterion not met

====

# Test system: maltase (carbohydrase derived from rabbit small intestine mucous membrane)
# assay-name: Action to inhibit the hydrolytic activity of homogenate prepared from rabbit small intestine mucous membrane: maltase inhibition
# Format: biochemical
# experimental-setup: 200 mg/dl; substrate maltose 20 mM; pH 6.8, 37° C., 15 minutes
# Procedure: (Action to inhibit the hydrolytic activity of homogenate prepared from rabbit small intestine mucous membrane to carbohydrate) A native kind of white rabbits (weight: 3.0-3.5 kg) were sacrificed by exsanguination to take out their small intestines. After freezing and thawing the small intestines thus taken out, they were homogenized in a 5 mM EDTA buffer (pH: 7.0) and subjected to centrifugation for 60 minutes at 60,000×g. […]
The threshold is inclusive: Maltase inhibition rate of exactly 20% counts as Y; values below receive N.

Record excerpt, results attached:
O=C[C@H](O)[C@H](O)[C@H](O)CO	Y
O=C[C@@H](O)[C@H](O)[C@H](O)CO [D-Arabinose, D-arabinose, reference compound]	N

stdin: Decide: is the reported value of Maltase inhibition rate for O=C[C@H](O)[C@@H](O)[C@H](O)CO equal to or greater than 20%?
stdout: Y

stdin: Decide: is the reported value of Maltase inhibition rate for OC1OC[C@@H](O[C@@H]2OC[C@@H](O[C@@H]3OC[C@@H](O[C@@H]4OC[C@@H](O[C@@H]5OC[C@@H](O)[C@H](O)[C@H]5O)[C@H](O)[C@H]4O)[C@H](O)[C@H]3O)[C@H](O)[C@H]2O)[C@H](O)[C@H]1O (some centres unmarked) [reference compound] equal to or greater than 20%?
stdout: N

stdin: Decide: is the reported value of Maltase inhibition rate for O=C[C@H](O)[C@@H](O)[C@@H](O)CO equal to or greater than 20%?
stdout: Y

stdin: Decide: is the reported value of Maltase inhibition rate for O=C(CO)[C@@H](O)[C@@H](O)[C@H](O)CO equal to or greater than 20%?
stdout: Y

stdin: Decide: is the reported value of Maltase inhibition rate for O=C[C@@H](O)[C@@H](O)[C@H](O)[C@H](O)CO [D-Mannose, D-mannose, reference compound] equal to or greater than 20%?
stdout: Y

stdin: Decide: is the reported value of Maltase inhibition rate for OC[C@H]1O[C@@H](O[C@H]2[C@H](O)[C@H](O)[C@H](O[C@H]3[C@H](O)[C@H](O)C(O)O[C@@H]3CO)O[C@@H]2CO)[C@@H](O)[C@@H](O)[C@@H]1O (some centres unmarked) [reference compound] equal to or greater than 20%?
stdout: N

stdin: Decide: is the reported value of Maltase inhibition rate for O=C(CO)[C@@H](O)[C@H](O)[C@@H](O)CO [L-Sorbose, L-sorbose, reference compound] equal to or greater than 20%?
stdout: N

stdin: Decide: is the reported value of Maltase inhibition rate for OC[C@H]1O[C@@H](O[C@H]2[C@H](O)[C@H](O)[C@H](O[C@H]3[C@H](O)[C@H](O)[C@H](O[C@H]4[C@H](O)[C@H](O)C(O)O[C@@H]4CO)O[C@@H]3CO)O[C@@H]2CO)[C@@H](O)[C@@H](O)[C@@H]1O (some centres unmarked) [reference compound] equal to or greater than 20%?
stdout: N

stdin: Decide: is the reported value of Maltase inhibition rate for OC[C@H]1O[C@@H](O[C@H]2[C@H](O)[C@H](O)C(O)O[C@@H]2CO)[C@@H](O)[C@@H](O)[C@@H]1O (some centres unmarked) [reference compound] equal to or greater than 20%?
stdout: N

stdin: Decide: is the reported value of Maltase inhibition rate for OC1OC[C@@H](O[C@@H]2OC[C@@H](O[C@@H]3OC[C@@H](O)[C@H](O)[C@H]3O)[C@H](O)[C@H]2O)[C@H](O)[C@H]1O (some centres unmarked) [reference compound] equal to or greater than 20%?
stdout: N

stdin: Decide: is the reported value of Maltase inhibition rate for N[C@H]1C(O)O[C@H](CO)[C@H](O)[C@@H]1O (stereo partly drawn) [D-Galactosamine, D-galactosamine, reference compound] equal to or greater than 20%?
stdout: N

stdin: Decide: is the reported value of Maltase inhibition rate for O=C[C@H](O)[C@@H](O)[C@@H](O)[C@H](O)CO [D-Galactose, D-galactose, reference compound] equal to or greater than 20%?
stdout: N

stdin: Decide: is the reported value of Maltase inhibition rate for OC1OC[C@@H](O[C@@H]2OC[C@@H](O[C@@H]3OC[C@@H](O[C@@H]4OC[C@@H](O[C@@H]5OC[C@@H](O[C@@H]6OC[C@@H](O)[C@H](O)[C@H]6O)[C@H](O)[C@H]5O)[C@H](O)[C@H]4O)[C@H](O)[C@H]3O)[C@H](O)[C@H]2O)[C@H](O)[C@H]1O (some centres unmarked) [reference compound] equal to or greater than 20%?
stdout: N

stdin: Decide: is the reported value of Maltase inhibition rate for C[C@H](O)[C@@H](O)[C@@H](O)[C@H](O)C=O equal to or greater than 20%?
stdout: Y
